This collection of values is drawn from patent US20250059166A1.

So I've got pIC50 readings for QPCTL (Homo sapiens, UniProt Q9NXS2), take a look.
Numbers only, as −log10 of the molar value.

Below are worked cases with known answers.
INSERT INTO measurements (molecule, reported_property, readout_value) VALUES
  ('Cn1cnnc1C1(F)CCN(c2c(C#N)cc(C(C)(F)F)nc2-c2cnc3nn(C(C)(C)C)c(F)c3c2)CC1 [Example 33]', 'pIC50', 9.00),
  ('Cn1cnnc1C1(F)CCN(c2c(C#N)ccnc2-c2cnc3nn(C(F)(F)F)nc3c2)CC1 [Example 18]', 'pIC50', 7.48),
  ('Cn1cnnc1C1(F)CCN(c2c(-c3cnc4nn(C(C)(C)C)cc4c3)ncc(Cl)c2C#N)CC1 [Example 38]', 'pIC50', 9.00),
  ('Cn1cnnc1C1(F)CCN(c2c(C#N)cc(Cl)nc2-c2ccc(F)nc2)CC1 [Example 37]', 'pIC50', 8.70);

Give one value of pIC50 per listed molecule.
1. Cc1cc(C#N)c(N2CCC(F)(c3nncn3C)CC2)c(-c2cnc3nn(C(C)(C)C)c(C(F)(F)F)c3c2)n1 [Example 27]
2. Cn1cnnc1C1(F)CCN(c2c(C#N)cc(C(F)(F)F)nc2-c2cnc3nn(C(C)(C)C)nc3c2)CC1 [Example 8]

[8.70, 8.30]

---

test: Assay C: permeability in CACO-2 cells; format: in vitro ADME; conditions: human, pH 7.2; compounds of the invention; Caco-2, permeability B-A / permeability A-B
Reported property: efflux ratio at 2 h
Numbers only.

Below are worked cases with known answers.
INSERT INTO results (molecule, reported_property, readout_value) VALUES
  ('Cn1cnnc1C1(F)CCN(c2c(C#N)cc(C3CC3)nc2-c2cnc3nn(C(C)(C)C)c(F)c3c2)CC1 [Example 29]', 'efflux ratio at 2 h', 2.7),
  ('Cn1cnnc1C1(F)CCN(c2c(C#N)cc(C3CC3)nc2-c2cnc3nn(C(C)(C)C)cc3c2)CC1 [Example 28]', 'efflux ratio at 2 h', 3.8),
  ('Cn1cnnc1C1(F)CCN(c2c(C#N)cc(C(F)(F)F)nc2-c2cnc3nn(C(F)(F)F)cc3c2)CC1 [Example 5]', 'efflux ratio at 2 h', 8.2),
  ('Cn1cnnc1C1(F)CCN(c2c(C#N)cc(C(F)(F)F)nc2-c2cnc(F)cc2Cl)CC1 [Example 10]', 'efflux ratio at 2 h', 1.2),
  ('CC(C)n1nc2ncc(-c3nc(C4CC4)cc(C#N)c3N3CCC(F)(c4nncn4C)CC3)cc2c1F [Example 30]', 'efflux ratio at 2 h', 9.4);

Give one value of efflux ratio at 2 h per listed molecule.
1. Cn1cnnc1C1(F)CCN(c2c(C#N)cc(C(F)(F)F)nc2-c2cnc3nc(C(F)(F)F)nn3c2)CC1 [Example 12]
2. Cc1cnc(-c2ccc(F)nc2)c(N2CCC(F)(c3nncn3C)CC2)c1C#N [Example 41]
3. Cn1cnnc1C1(F)CCN(c2c(C#N)ccnc2-c2cnc(F)cc2Cl)CC1 [Example 22]
4. Cn1cnnc1C1(F)CCN(c2c(C#N)cc(C3CC3)nc2-c2ccc(F)nc2)CC1 [Example 31]
5. Cn1cnnc1C1(F)CCN(c2c(C#N)ccnc2-c2cnc3nn(C(C)(C)C)c(Cl)c3c2)CC1 [Example 14]
6. Cn1cnnc1C1(F)CCN(c2c(C#N)cc(C(C)(F)F)nc2-c2cnc3nn(C(C)(C)C)c(F)c3c2)CC1 [Example 33]

6.9
2.6
1.6
1.4
6.9
2.2

Give one value of efflux ratio at 2 h per listed molecule.
1. Cn1cnnc1C1(F)CCN(c2c(C#N)cc(C(F)(F)F)nc2-c2cnc3nn(C(C)(C)C)c(Cl)c3c2)CC1 [Example 3]
2. Cc1cc(C#N)c(N2CCC(F)(c3nncn3C)CC2)c(-c2cnc3nn(C(C)(C)C)c(C(F)(F)F)c3c2)n1 [Example 27]

[1, 2.4]

Give one value of efflux ratio at 2 h per listed molecule.
1. Cn1cnnc1C1(F)CCN(c2c(C#N)ccnc2-c2cnc3nn(C(F)(F)F)nc3c2)CC1 [Example 18]
2. Cc1cncc(-c2nccc(C#N)c2N2CCC(F)(c3nncn3C)CC2)c1 [Example 20]

1. 2.8
2. 4.5

Give one value of efflux ratio at 2 h per listed molecule.
1. Cn1cnnc1C1(F)CCN(c2c(C#N)cc(Cl)nc2-c2ccc(F)nc2)CC1 [Example 37]
2. Cc1cc(C#N)c(N2CCC(F)(c3nncn3C)CC2)c(-c2cnc3nn(C(C)(C)C)c(Cl)c3c2)n1 [Example 26]

2.2
4.2
